# MEASUREMENT_TARGET: T1, recombinant MCL1 (human, UniProt Q07820 1-350)
# T1 construct: MCL1, human; Uniformly 15N-labelled for NMR; also called 15N MCL1; source: E. coli BL21 (DE3), purified (nickel chromatography, gel filtration)
# T1 sequence (Q07820 whole entry): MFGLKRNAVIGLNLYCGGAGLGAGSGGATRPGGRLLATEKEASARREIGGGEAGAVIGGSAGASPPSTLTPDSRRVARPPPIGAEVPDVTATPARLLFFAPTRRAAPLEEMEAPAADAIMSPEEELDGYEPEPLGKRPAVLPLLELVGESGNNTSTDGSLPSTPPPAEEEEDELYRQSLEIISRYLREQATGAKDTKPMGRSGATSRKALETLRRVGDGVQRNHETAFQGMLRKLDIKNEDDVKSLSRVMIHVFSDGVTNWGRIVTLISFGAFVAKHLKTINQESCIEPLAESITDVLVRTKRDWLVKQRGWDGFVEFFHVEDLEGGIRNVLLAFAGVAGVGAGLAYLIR
# ASSAY_EXPLANATION: fluorescence polarisation; competitive FPA: 50 nM recombinant MCL1, 10 nM F-BAK, titration of unlabeled p73 peptide or p73DBD, 1× PBS pH 7.4
# CONDITION_SUMMARY: both partners purified
pIC50: −log10 of the molar value. No end group written: not given here.
Some binders, each annotated with its measured pIC50.

Q: Give the reported pIC50 for this binder. DEDTYYLQVRG-NH2 [p73TD-derived peptide β1]
Result: < 5.00

Continuing:
Q: Give the reported pIC50 for this binder. PQPLVDSYRQQQQLLQR [p73TD-derived peptide α2]
Result: < 5.00
